We begin with a simple list: items and their reported Ki.
- System: HA1 adenosine receptor (Homo sapiens, UniProt P30542)
- Sequence (P30542 whole entry): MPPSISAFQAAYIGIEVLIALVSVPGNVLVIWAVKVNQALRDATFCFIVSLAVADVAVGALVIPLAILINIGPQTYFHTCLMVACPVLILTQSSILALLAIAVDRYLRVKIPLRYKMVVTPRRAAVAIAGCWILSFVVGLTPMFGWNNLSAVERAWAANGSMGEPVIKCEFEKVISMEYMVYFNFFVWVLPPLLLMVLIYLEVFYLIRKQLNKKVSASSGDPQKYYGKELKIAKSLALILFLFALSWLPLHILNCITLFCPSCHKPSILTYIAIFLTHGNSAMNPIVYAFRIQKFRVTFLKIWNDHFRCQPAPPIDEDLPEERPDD
- Experiment Description: Human adenosine A1 receptor affinity (Ki hA1)
- Type: binding
- Applied Conditions: affinity to human adenosine A1 receptor
Kindly answer with a numeric value in nM, unit omitted.

CCN(Cc1ccncc1)C(=O)c1cc(N)n2nc(-c3ccc(Br)o3)nc2c1	59.1
Cc1ccc(-c2nc3cc(C(=O)N(C)Cc4ccccc4)cc(N)n3n2)o1	107
CCN(Cc1ccccc1F)C(=O)c1cc(N)n2nc(-c3cccnc3)nc2c1	815

API: the following record is the query input.
For COc1cc(CNC(=O)c2cc(N)n3nc(-c4cc(Br)co4)nc3c2)cc(OC)c1OC the compound record lists Ki as 266

----------
- System: human adenosine A2A receptor (Homo sapiens, UniProt P29274)
- Construct: expressed in transfected cells; host or cells: CHO cells, Semliki Forest virus expression system; membrane preparation
- Sequence (P29274 whole entry): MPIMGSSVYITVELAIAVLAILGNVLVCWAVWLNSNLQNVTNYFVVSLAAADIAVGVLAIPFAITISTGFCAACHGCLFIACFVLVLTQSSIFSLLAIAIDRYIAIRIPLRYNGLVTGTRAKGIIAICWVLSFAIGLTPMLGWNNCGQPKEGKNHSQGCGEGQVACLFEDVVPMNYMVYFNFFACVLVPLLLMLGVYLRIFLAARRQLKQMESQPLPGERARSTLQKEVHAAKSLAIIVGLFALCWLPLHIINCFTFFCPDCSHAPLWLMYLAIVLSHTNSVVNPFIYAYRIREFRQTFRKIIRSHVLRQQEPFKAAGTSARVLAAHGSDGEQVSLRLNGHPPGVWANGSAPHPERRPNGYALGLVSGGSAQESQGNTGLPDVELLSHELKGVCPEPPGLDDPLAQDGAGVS
- Experiment Description: Human adenosine A2A receptor [3H]-SCH-58261 binding assay
- Applied Conditions: recombinant human A2A in CHO cell membranes, [3H]-SCH-58261, Cheng-Prussoff; read-out: Ki hA2A
- Method: Human Adenosine A2A Receptor The human adenosine A2A receptor was recombinantly expressed in chinese hamster ovary (CHO) cells using the semliki forest virus expression system. […] Assay plates were incubated for 1 hour at room temperature before centrifugation and then bound ligand determined using a Packard Topcount scintillation counter. IC50 values were calculated using a non-linear curve fitting program and Ki values calculated using the Cheng-Prussoff equation.
Rule: measured Ki below 0.09 µM gets true (1); anything equal to or greater than 0.09 µM gets false (0).

Solved entries:
COC[C@H]1CCCN1C(=O)c1cc(N)n2nc(-c3ccccn3)nc2c1 [Example 425]	true (1)
CC1CC(C)CN(C(=O)c2cc(N)n3nc(-c4ccccn4)nc3c2)C1 (stereo not drawn) [Example 423]	true (1)
CCCCN(CC)C(=O)c1cc(N)n2nc(-c3ccccn3)nc2c1 [Example 421]	true (1)
CC(C)CN(CC(C)C)C(=O)c1cc(N)n2nc(-c3nccs3)nc2c1 [Example 405]	true (1)
CCCCN(CCC)C(=O)c1cc(N)n2nc(-c3ccccn3)nc2c1 [Example 427]	false (0)

Next compound, please.
// query Is 0.09 µM strictly greater than the compound's reported Ki? compound: CC1CCCN(C(=O)c2cc(N)n3nc(-c4ccccn4)nc3c2)C1 (stereo not drawn) [Example 419]
// result true (1)

----------
- System: human adenosine A2A receptor (Homo sapiens)
- Construct: expressed in transfected cells; host or cells: CHO cells, Semliki Forest virus expression system; membrane preparation
- Experiment Description: Human adenosine A2A receptor [3H]-SCH-58261 binding assay
- Applied Conditions: calculated ratio of the affinity to the HA1 receptor to the HA2a receptor
- Procedure: Human Adenosine A2A Receptor The human adenosine A2A receptor was recombinantly expressed in chinese hamster ovary (CHO) cells using the semliki forest virus expression system. […] Assay plates were incubated for 1 hour at room temperature before centrifugation and then bound ligand determined using a Packard Topcount scintillation counter. IC50 values were calculated using a non-linear curve fitting program and Ki values calculated using the Cheng-Prussoff equation.
Use yes (1) when the recorded selectivity (A1/A2a) is no lower than 20; use no (0) when it is lower.

Cc1ccc(-c2nc3cc(C(=O)N4CCOCC4)cc(N)n3n2)o1	yes (1)

// query API: above_or_equal(metric=selectivity (A1/A2a), cutoff=20) for item Nc1cc(C(=O)NCc2ccccc2Br)cc2nc(-c3ccc(Br)o3)nn12
// result no (0)

// query API: above_or_equal(metric=selectivity (A1/A2a), cutoff=20) for item CCCCNC(=O)c1cc(N)n2nc(-c3sccc3C)nc2c1
// result no (0)

// query API: above_or_equal(metric=selectivity (A1/A2a), cutoff=20) for item Nc1cc(C(=O)NC2CCCCC2)cc2nc(-c3ccc(Cl)o3)nn12
// result no (0)

// query API: above_or_equal(metric=selectivity (A1/A2a), cutoff=20) for item Nc1cc(C(=O)N2CCCCCCC2)cc2nc(-c3nccs3)nn12
// result yes (1)

// query API: above_or_equal(metric=selectivity (A1/A2a), cutoff=20) for item Nc1cc(C(=O)N2CCCC2)cc2nc(-c3nccs3)nn12
// result yes (1)

// query API: above_or_equal(metric=selectivity (A1/A2a), cutoff=20) for item CN(C(=O)c1cc(N)n2nc(-c3ccc(Br)o3)nc2c1)C1CCCCC1
// result yes (1)

// query API: above_or_equal(metric=selectivity (A1/A2a), cutoff=20) for item COc1ccc(-c2nc3cc(C(=O)NCc4ccccc4Br)cc(N)n3n2)s1
// result no (0)

// query API: above_or_equal(metric=selectivity (A1/A2a), cutoff=20) for item CCN(C(=O)c1cc(N)n2nc(-c3ccoc3)nc2c1)C(C)C
// result no (0)
